Answer each item with its documented inhibition at 0.05 µM.
molecular target: CK2 (Homo sapiens (Human), UniProt P68400); test: Radiometric CK2 kinase assay; assay type: biochemical; settings: compound at 0.05 μM; ATP 10 μM
Sequence (P68400 whole entry): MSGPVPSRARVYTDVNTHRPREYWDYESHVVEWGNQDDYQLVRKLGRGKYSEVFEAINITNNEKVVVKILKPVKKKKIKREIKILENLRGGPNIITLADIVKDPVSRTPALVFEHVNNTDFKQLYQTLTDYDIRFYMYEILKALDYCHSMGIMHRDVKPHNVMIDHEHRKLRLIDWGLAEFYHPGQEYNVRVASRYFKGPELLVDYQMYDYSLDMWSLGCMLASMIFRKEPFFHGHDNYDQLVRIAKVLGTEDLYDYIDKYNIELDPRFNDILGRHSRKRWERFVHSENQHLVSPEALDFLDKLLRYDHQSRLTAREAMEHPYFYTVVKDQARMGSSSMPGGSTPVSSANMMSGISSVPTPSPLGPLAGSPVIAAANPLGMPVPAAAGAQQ

For "O=C(c1[nH]c2ccc(F)cc2c1-c1cn(CC2CCN(CCNS(=O)(=O)c3ccc(-c4cccnc4Cl)cc3)CC2)nn1)C1CC1" the compound record lists inhibition at 0.05 µM as 16%

For "CC(C)COC(=O)c1[nH]c2ccc(F)cc2c1-c1cn(CC2CCN(CCNS(=O)(=O)c3ccc(-c4cccnc4F)cc3)CC2)nn1" the compound record lists inhibition at 0.05 µM as 61%

For "COc1ccccc1-c1ccc(S(=O)(=O)NCCN2CCC(Cn3cc(-c4c(C(=O)OCC(C)C)[nH]c5ccc(F)cc45)nn3)CC2)cc1" the compound record lists inhibition at 0.05 µM as 59%

For "CCCC(=O)c1[nH]c2ccc(F)cc2c1-c1cn(CC2CCN(CCNS(=O)(=O)c3ccc(-c4cccnc4Cl)cc3)CC2)nn1" the compound record lists inhibition at 0.05 µM as 17%

---

target: CK2 (Homo sapiens (Human), UniProt P68400); assay: Radiometric CK2 kinase assay; assay type: biochemical
Cut-off 0.2 µM on IC50: below means Y, at or above means N.

Determine if "CCc1ccc(S(=O)(=O)NCCN2CCC(Cn3cc(-c4c(C(=O)OC(C)C)[nH]c5ccc(F)cc45)nn3)CC2)cc1" shows IC50 strictly lower than 0.2 µM.
N

Determine if "CC(C)COC(=O)c1[nH]c2ccc(F)cc2c1-c1cn(CC2CCN(CCNS(=O)(=O)c3ccc(C4=CCOCC4)cc3)CC2)nn1" shows IC50 strictly lower than 0.2 µM.
Y

Determine if "CC(C)COC(=O)c1[nH]c2ccc(F)cc2c1-c1cn(CC2CCN(CCNS(=O)(=O)c3ccc(C(C)C)cc3)CC2)nn1" shows IC50 strictly lower than 0.2 µM.
Y

Determine if "CCOC(=O)c1[nH]c2ccc(Cl)cc2c1-c1cn(CC2CCN(CCNS(=O)(=O)c3ccc(C(C)C)cc3)CC2)nn1" shows IC50 strictly lower than 0.2 µM.
N

Determine if "CC(=O)c1[nH]c2ccc(F)cc2c1-c1cn(CC2CCN(CCNS(=O)(=O)c3ccc(-c4c(C)noc4C)cc3)CC2)nn1" shows IC50 strictly lower than 0.2 µM.
N

Determine if "CCOC(=O)c1[nH]c2ccc(Cl)cc2c1-c1cn(CC2CCN(CCNS(=O)(=O)c3ccc(CC)cc3)CC2)nn1" shows IC50 strictly lower than 0.2 µM.
N

Determine if "COc1cccc(OC)c1-c1ccc(S(=O)(=O)NCCN2CCC(Cn3cc(-c4c(C(=O)OCC(C)C)[nH]c5ccc(F)cc45)nn3)CC2)cc1" shows IC50 strictly lower than 0.2 µM.
Y

Determine if "CCOC(=O)c1[nH]c2ccc(F)cc2c1-c1cn(CC2CCN(CCNS(=O)(=O)c3ccc(Cl)cc3)CC2)nn1" shows IC50 strictly lower than 0.2 µM.
N

Determine if "CC(=O)c1[nH]c2ccc(F)cc2c1-c1cn(C[C@H]2CCN(CCNS(=O)(=O)c3ccc(CC(C)C)cc3)C2)nn1" shows IC50 strictly lower than 0.2 µM.
N

Determine if "CC(C)COC(=O)c1[nH]c2ccc(F)cc2c1-c1cn(CC2CCN(CCNS(=O)(=O)c3ccc4c(c3)OCCCO4)CC2)nn1" shows IC50 strictly lower than 0.2 µM.
Y

Determine if "CCc1ccc(S(=O)(=O)NCCN2CCC(Cn3cc(-c4c(C(=O)OCCO)[nH]c5ccc(F)cc45)nn3)CC2)cc1" shows IC50 strictly lower than 0.2 µM.
N

Determine if "CC(C)COC(=O)c1[nH]c2ccc(Cl)cc2c1-c1cn(CC2CCN(CCNS(=O)(=O)c3ccc4ccccc4c3)CC2)nn1" shows IC50 strictly lower than 0.2 µM.
N

Determine if "CCOC(=O)c1[nH]c2ccc(Cl)cc2c1-c1cn(CC2CCN(CCNS(=O)(=O)c3ccc(C)cc3)CC2)nn1" shows IC50 strictly lower than 0.2 µM.
N

Determine if "CCOC(=O)c1[nH]c2ccc(F)cc2c1-c1cn(CC2CCN(CCNS(=O)(=O)c3ccc(C)cc3)CC2)nn1" shows IC50 strictly lower than 0.2 µM.
N

Determine if "CCOC(=O)c1[nH]c2ccc(F)cc2c1-c1cn(CC2CCN(CCNS(=O)(=O)c3ccc(C(C)C)cc3)CC2)nn1" shows IC50 strictly lower than 0.2 µM.
N

Determine if "CC(C)COC(=O)c1[nH]c2ccc(F)cc2c1-c1cn(CC2CCN(CCNS(=O)(=O)c3ccc(OC(F)(F)F)cc3)CC2)nn1" shows IC50 strictly lower than 0.2 µM.
N

Determine if "CC(C)COC(=O)c1[nH]c2ccc(F)cc2c1-c1cn(CC2CCN(CCNS(=O)(=O)c3ccc(OC(C)C)cc3)CC2)nn1" shows IC50 strictly lower than 0.2 µM.
N

Determine if "CC(C)COC(=O)c1[nH]c2ccc(F)cc2c1-c1cn(CC2CCN(CCNS(=O)(=O)c3ccc(C(F)(F)F)cc3)CC2)nn1" shows IC50 strictly lower than 0.2 µM.
N

Determine if "O=S(=O)(NCCN1CCC(Cn2cc(-c3c[nH]c4ccccc34)nn2)CC1)c1ccccc1" shows IC50 strictly lower than 0.2 µM.
N

Determine if "CC(C)COC(=O)c1[nH]c2ccc(F)cc2c1-c1cn(CC2CCN(CCNS(=O)(=O)c3ccc(C4CCCCC4)cc3)CC2)nn1" shows IC50 strictly lower than 0.2 µM.
Y

Determine if "CC(C)COC(=O)c1[nH]c2ccc(F)cc2c1-c1cn(CC2CCN(CCNS(=O)(=O)c3ccc(-c4ccccc4N(C)C)cc3)CC2)nn1" shows IC50 strictly lower than 0.2 µM.
Y

Determine if "CCc1ccc(S(=O)(=O)NCCN2CCC(Cn3cc(-c4c(C(=O)OCC(C)C)[nH]c5ccc(Cl)cc45)nn3)CC2)cc1" shows IC50 strictly lower than 0.2 µM.
N

Determine if "COc1cccc(OC)c1-c1ccc(S(=O)(=O)NCCN2CCC(Cn3cc(-c4c(C(C)=O)[nH]c5ccc(F)cc45)nn3)CC2)cc1F" shows IC50 strictly lower than 0.2 µM.
Y

Determine if "CC(C)COC(=O)c1[nH]c2ccc(F)cc2c1-c1cn(CC2CCN(CCNS(=O)(=O)c3ccc(-c4ccccc4)cc3)CC2)nn1" shows IC50 strictly lower than 0.2 µM.
Y

Determine if "CCOC(=O)c1[nH]c2cc(Cl)ccc2c1-c1cn(CC2CCN(CCNS(=O)(=O)c3ccc(C)cc3)CC2)nn1" shows IC50 strictly lower than 0.2 µM.
N

Determine if "CC(=O)c1[nH]c2ccc(F)cc2c1-c1cn(CC2CCN(CCNS(=O)(=O)c3ccc(CC4CC4)cc3)CC2)nn1" shows IC50 strictly lower than 0.2 µM.
N
